meta.source: patent US5134137A

- Test system: Escherichia coli
- test: MIC, agar dilution, Escherichia coli
- Assay type: cell-based
- conditionSummary: Escherichia coli; strain UC6720; read-out: MIC
MIC strictly under 8 µg/mL means satisfied; at 8 µg/mL or over means not satisfied.

Inquiry: I wonder whether CO/N=C(\C(=O)N[C@@H]1C(=O)N2C(C(=O)O)=C(CSSc3ccc([N+](=O)[O-])cc3)CS[C@H]12)c1csc(N)n1 has MIC below 8 µg/mL. Can you tell?
Reply text: satisfied

Inquiry: Take the compound CO/N=C(\C(=O)N[C@@H]1C(=O)N2C(C(=O)O)=C(CSCC(N)=O)CS[C@H]12)c1csc(N)n1 and say whether its MIC is less than 8 µg/mL.
Reply text: satisfied

Inquiry: Is 8 µg/mL strictly greater than the compound's reported MIC? compound: CO/N=C(\C(=O)N[C@@H]1C(=O)N2C(C(=O)O)=C(CS)CS[C@H]12)c1csc(N)n1
Reply text: satisfied

Inquiry: Is MIC of CCCCSSCC1=C(C(=O)O)N2C(=O)[C@@H](NC(=O)/C(=N\OC)c3csc(N)n3)[C@H]2SC1 strictly below 8 µg/mL?
Reply text: not satisfied

Inquiry: Given the entry CCCSSCC1=C(C(=O)O)N2C(=O)[C@@H](NC(=O)/C(=N\OC)c3csc(N)n3)[C@H]2SC1 , would its reported MIC be below 8 µg/mL?
Reply text: not satisfied
